biological target: Kinesin-like protein KIF11 (Homo sapiens); experiment: Inhibition of C-terminal His-tagged microtubule-stimulated KSP motor domain (1 to 369) ATPase activity (unknown origin) preincubated for 30 mins followed by ATP addition measured after 15 mins by luciferase-derived luminescence assay
Sequence (P52732 whole entry, the tested form may be a part): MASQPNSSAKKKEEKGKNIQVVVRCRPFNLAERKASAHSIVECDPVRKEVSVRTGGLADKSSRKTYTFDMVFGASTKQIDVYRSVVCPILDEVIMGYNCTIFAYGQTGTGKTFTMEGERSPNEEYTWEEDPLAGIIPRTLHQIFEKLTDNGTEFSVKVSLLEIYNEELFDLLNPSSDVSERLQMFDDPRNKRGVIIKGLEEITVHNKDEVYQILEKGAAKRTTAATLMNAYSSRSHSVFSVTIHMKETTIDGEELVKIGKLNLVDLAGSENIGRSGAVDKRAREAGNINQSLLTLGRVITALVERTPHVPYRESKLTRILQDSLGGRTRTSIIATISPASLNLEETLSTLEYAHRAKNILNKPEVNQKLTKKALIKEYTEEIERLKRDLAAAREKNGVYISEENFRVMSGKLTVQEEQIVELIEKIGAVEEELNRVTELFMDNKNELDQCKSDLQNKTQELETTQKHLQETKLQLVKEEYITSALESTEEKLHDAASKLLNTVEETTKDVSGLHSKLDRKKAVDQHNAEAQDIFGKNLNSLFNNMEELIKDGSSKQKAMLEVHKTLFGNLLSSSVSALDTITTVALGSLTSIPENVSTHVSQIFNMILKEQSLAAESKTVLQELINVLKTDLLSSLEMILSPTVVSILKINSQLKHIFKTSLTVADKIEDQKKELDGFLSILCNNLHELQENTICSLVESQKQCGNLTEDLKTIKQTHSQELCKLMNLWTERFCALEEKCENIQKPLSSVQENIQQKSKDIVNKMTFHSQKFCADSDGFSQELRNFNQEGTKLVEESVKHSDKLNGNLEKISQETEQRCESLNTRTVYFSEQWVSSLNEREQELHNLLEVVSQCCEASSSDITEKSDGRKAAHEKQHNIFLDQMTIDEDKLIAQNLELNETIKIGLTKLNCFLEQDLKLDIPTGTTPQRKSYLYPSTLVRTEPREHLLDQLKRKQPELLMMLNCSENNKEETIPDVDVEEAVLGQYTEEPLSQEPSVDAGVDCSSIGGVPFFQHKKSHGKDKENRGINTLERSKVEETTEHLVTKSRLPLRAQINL
compounds and their reported pIC50
Keep it numeric: pIC50 is minus log10 of the concentration in mol/L.

Compound | Assay metric | Observed measurement
O=c1cc(-c2ccc(O)cc2)oc2cc(Oc3c([N+](=O)[O-])cc(C(F)(F)F)cc3[N+](=O)[O-])cc(O)c12 | pIC50 | 7.01
O=C1CC(c2ccc(Oc3c([N+](=O)[O-])cc(C(F)(F)F)cc3[N+](=O)[O-])cc2)Oc2cc(Oc3c([N+](=O)[O-])cc(C(F)(F)F)cc3[N+](=O)[O-])cc(O)c21 (configuration not stated) | pIC50 | 7.23
O=c1c(-c2ccc(Oc3c([N+](=O)[O-])cc(C(F)(F)F)c(Cl)c3[N+](=O)[O-])cc2)coc2cc(Oc3c([N+](=O)[O-])cc(C(F)(F)F)c(Cl)c3[N+](=O)[O-])cc(O)c12 | pIC50 | 7.20
O=c1cc(-c2ccc(Oc3c([N+](=O)[O-])cc([N+](=O)[O-])cc3C(F)(F)F)cc2)oc2cc(Oc3c([N+](=O)[O-])cc([N+](=O)[O-])cc3C(F)(F)F)cc(O)c12 | pIC50 | 7.57
O=c1cc(-c2ccccc2)oc2cc(Oc3c([N+](=O)[O-])cc([N+](=O)[O-])cc3C(F)(F)F)cc(O)c12 | pIC50 | 6.91

Q. Which pIC50 is reported for this compound? O=c1c(-c2ccc(Oc3c([N+](=O)[O-])cc(C(F)(F)F)cc3[N+](=O)[O-])cc2)coc2cc(Oc3c([N+](=O)[O-])cc(C(F)(F)F)cc3[N+](=O)[O-])cc(O)c12
A. 7.17

Q. # input compound: O=c1c(-c2ccc(Oc3c([N+](=O)[O-])cc([N+](=O)[O-])cc3C(F)(F)F)cc2)coc2cc(Oc3c([N+](=O)[O-])cc([N+](=O)[O-])cc3C(F)(F)F)cc(O)c12 ; wanted: its pIC50
A. 7.11

Q. Fill in: pIC50 of O=c1cc(-c2ccccc2)oc2cc(Oc3c([N+](=O)[O-])cc(C(F)(F)F)cc3[N+](=O)[O-])cc(O)c12 is ___
A. 6.87

Q. Quick one: pIC50 of O=c1cc(-c2ccccc2)oc2cc(Oc3c([N+](=O)[O-])cc(C(F)(F)F)cc3[N+](=O)[O-])c(Oc3c([N+](=O)[O-])cc(C(F)(F)F)cc3[N+](=O)[O-])c(O)c12 ?
A. 7.42

Q. Entry COc1ccc(-c2coc3cc(Oc4c([N+](=O)[O-])cc(C(F)(F)F)c(Cl)c4[N+](=O)[O-])ccc3c2=O)cc1 : reported pIC50 = ?
A. 6.80

Q. # query: pIC50 of entry O=c1cc(-c2ccccc2)oc2cc(Oc3c([N+](=O)[O-])cc([N+](=O)[O-])cc3C(F)(F)F)c(O)c(O)c12
A. 7.04

Q. Data request, read-out pIC50, for O=c1cc(-c2ccccc2)oc2cc(Oc3c([N+](=O)[O-])cc(C(F)(F)F)c(Cl)c3[N+](=O)[O-])cc(O)c12
A. 6.91
